Biological target: COX-2 (Homo sapiens, UniProt P35354)
Sequence (P35354 18-604): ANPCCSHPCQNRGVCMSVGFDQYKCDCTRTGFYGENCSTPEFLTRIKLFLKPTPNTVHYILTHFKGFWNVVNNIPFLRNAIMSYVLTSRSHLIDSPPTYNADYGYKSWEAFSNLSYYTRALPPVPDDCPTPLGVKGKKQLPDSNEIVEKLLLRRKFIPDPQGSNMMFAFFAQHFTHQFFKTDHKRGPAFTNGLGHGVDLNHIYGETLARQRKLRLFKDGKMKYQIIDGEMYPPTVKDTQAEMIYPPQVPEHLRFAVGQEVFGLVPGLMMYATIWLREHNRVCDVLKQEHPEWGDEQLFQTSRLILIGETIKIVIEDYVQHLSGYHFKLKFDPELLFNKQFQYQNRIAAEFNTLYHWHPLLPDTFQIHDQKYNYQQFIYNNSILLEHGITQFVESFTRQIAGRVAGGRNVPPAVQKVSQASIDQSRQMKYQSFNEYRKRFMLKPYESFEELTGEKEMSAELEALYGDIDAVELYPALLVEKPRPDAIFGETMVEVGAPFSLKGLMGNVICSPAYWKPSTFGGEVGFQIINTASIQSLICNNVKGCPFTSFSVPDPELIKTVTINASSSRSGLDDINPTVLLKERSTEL
Test: fluorescent COX-2 inhibitor screening kit
Assay type: biochemical
outcome measure: IC50 (µM)

compound structure string | test value
COc1cc([C@@H]2c3cc4c(cc3[C@H](O)[C@H]3COC(=O)[C@H]23)OCO4)cc(OC)c1OC | 10.5
